biological target: VP1 capsid protein on BKV pseudovirions of genotype Ia (BK-D; JF894228) (BK virus genotype Ia (BK-D)); experiment: cell-based or functional assay
Please go through the items and note down their Neutralization PSV IC50.
Output spec: scalar in µg/mL, unitless text.

Reported Neutralization PSV IC50 for antibody C6P7 (antibody, V domains shown) VH: QVQLQESGPGLVRPSQTLSLTCTVSGGSMTSGSYYWSWIRQPAEKGLEWIGRIYTSGRTDYNPSLKSRVAMSIDTSKNQFSLRLTSVTAADTAVYYCARWGDSSAYYYVGDPWGRGTPVTVSS VL: DIQMTQSPSSLSASIGDRVTITCRASQNINTYLYWYQQKPGKAPQLLIYAASNLQTGAPSRFSGSGSGTDFTLTISSLQPADFATYYCQQSFSLPHTFGQGTKVEIK : what is it?
0.104

Entry antibody F3P6 (antibody, V domains shown) VH: QVQLVQSGAEVKKPGASVKVSCKASGYTFTTHIIHWVRQAPGQRLEWMGWINAGNGNTHYSEKFQGRVTLTRDTSASTAYMELSSLRSEDTAIYYCAREDQWLGRSPLEYWGQGTLVTVSS VL: EIVLTQSPGTLSLSPGERATLSCRASQSVSSSYLAWYQHKPGQAPRLLIYGASSRATGIPDRFSGSGSGTDFTLTISRLEPEDFAVYYCQQYGNSYPWTFGQGTKVEIK : reported Neutralization PSV IC50 = ?
0.363

Hello, the source for this data is patent EP4659811A1, in case you need it.
